Numbers sourced from IntAct's records for PubMed 31515488.

B1: Interleukin-1 receptor-associated kinase 4 (Homo sapiens), Q9NWZ3 (parent)
chain: MNKPITPSTYVRCLNVGLIRKLSDFIDPQEGWKKLAVAIKKPSGDDRYNQFHIRRFEALLQTGKSPTSELLFDWGTTNCTVGDLVDLLIQNEFFAPASLLLPDAVPKTANTLPSKEAITVQQKQMPFCDKDRTLMTPVQNLEQSYMPPDSSSPENKSLEVSDTRFHSFSFYELKNVTNNFDERPISVGGNKMGEGGFGVVYKGYVNNTTVAVKKLAAMVDITTEELKQQFDQEIKVMAKCQHENLVELLGFSSDGDDLCLVYVYMPNGSLLDRLSCLDGTPPLSWHMRCKIAQGAANGINFLHENHHIHRDIKSANILLDEAFTAKISDFGLARASEKFAQTVMTSRIVGTTAYMAPEALRGEITPKSDIYSFGVVLLEIITGLPAVDEHREPQLLLDIKEEIEDEEKTIEDYIDKKMNDADSTSVEAMYSVASQCLHEKKNKRPDIKKVQQLLQEMTAS

variants of: B1; conditions: with myd88_human MYD88, Q99836
Sequence (Q99836 whole entry): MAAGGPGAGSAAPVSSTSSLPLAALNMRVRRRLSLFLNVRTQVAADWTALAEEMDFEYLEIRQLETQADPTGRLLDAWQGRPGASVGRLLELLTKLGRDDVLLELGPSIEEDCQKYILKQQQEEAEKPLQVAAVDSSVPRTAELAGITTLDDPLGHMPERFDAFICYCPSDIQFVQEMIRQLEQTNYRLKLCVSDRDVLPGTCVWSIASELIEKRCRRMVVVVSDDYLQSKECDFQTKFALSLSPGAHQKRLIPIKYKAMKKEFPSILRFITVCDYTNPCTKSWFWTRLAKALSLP
ASSAY_METRIC: effect of a mutation on the interaction

>>> df
   residue_change  reported_result
0           A428T   with no effect
1            R20W   with no effect
2           R391H   with no effect
